Every entry's value here was drawn from patent US20210388087A1.

# Lookup of reported fold change of affinity keyed by entry
biological target: T1, Human CD137 ECD (human); experiment: single mutant vs template dBBDu183H
T1 construct: also called 4-1BB
T1 sequence (chain, as listed by the source limits assumed): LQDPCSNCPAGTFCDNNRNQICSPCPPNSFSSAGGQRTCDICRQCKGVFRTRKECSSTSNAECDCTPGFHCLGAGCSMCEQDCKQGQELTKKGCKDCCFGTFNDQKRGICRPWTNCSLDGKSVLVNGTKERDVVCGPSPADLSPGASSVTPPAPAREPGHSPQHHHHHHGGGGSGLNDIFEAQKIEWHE
assay.metric: fold change of affinity (fold)

binder="H183/L072 VH F27V (antibody, name in Kabat numbering, V domains shown) VH: QVQLVESGGGLVQPGRSLRLSCAASGVTFSNAWMHWVRQAPGKGLEWVAQIKDKGNAYAAYYAPSVKGRFTISRDDSKNSIYLQMNSLKTEDTAVYYCHYVHYASASTVLPAFGVDAWGQGTTVTVSS VL: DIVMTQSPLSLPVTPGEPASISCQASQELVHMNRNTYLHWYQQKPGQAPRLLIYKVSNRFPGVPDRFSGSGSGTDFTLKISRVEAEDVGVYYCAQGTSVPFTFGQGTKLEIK" assay_metric="fold change of affinity" recorded_number=0.3
binder="H183/L072 VH Q50L (antibody, name in Kabat numbering, V domains shown) VH: QVQLVESGGGLVQPGRSLRLSCAASGFTFSNAWMHWVRQAPGKGLEWVALIKDKGNAYAAYYAPSVKGRFTISRDDSKNSIYLQMNSLKTEDTAVYYCHYVHYASASTVLPAFGVDAWGQGTTVTVSS VL: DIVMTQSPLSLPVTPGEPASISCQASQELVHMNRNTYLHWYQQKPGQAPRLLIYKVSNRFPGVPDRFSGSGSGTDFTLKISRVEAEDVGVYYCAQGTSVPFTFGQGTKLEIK" assay_metric="fold change of affinity" recorded_number=0.8
binder="H183/L072 VH A32F (antibody, name in Kabat numbering, V domains shown) VH: QVQLVESGGGLVQPGRSLRLSCAASGFTFSNFWMHWVRQAPGKGLEWVAQIKDKGNAYAAYYAPSVKGRFTISRDDSKNSIYLQMNSLKTEDTAVYYCHYVHYASASTVLPAFGVDAWGQGTTVTVSS VL: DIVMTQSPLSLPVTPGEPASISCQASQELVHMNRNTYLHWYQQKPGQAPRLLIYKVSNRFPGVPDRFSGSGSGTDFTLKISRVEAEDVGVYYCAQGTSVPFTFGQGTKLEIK" assay_metric="fold change of affinity" recorded_number=0.1
binder="H183/L072 VH K52bR (antibody, name in Kabat numbering, V domains shown) VH: QVQLVESGGGLVQPGRSLRLSCAASGFTFSNAWMHWVRQAPGKGLEWVAQIKDRGNAYAAYYAPSVKGRFTISRDDSKNSIYLQMNSLKTEDTAVYYCHYVHYASASTVLPAFGVDAWGQGTTVTVSS VL: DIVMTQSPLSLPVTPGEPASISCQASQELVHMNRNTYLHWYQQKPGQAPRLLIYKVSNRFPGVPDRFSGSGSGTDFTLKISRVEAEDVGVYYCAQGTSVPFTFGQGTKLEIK" assay_metric="fold change of affinity" recorded_number=1.2
binder="H183/L072 VH Y58H (antibody, name in Kabat numbering, V domains shown) VH: QVQLVESGGGLVQPGRSLRLSCAASGFTFSNAWMHWVRQAPGKGLEWVAQIKDKGNAYAAHYAPSVKGRFTISRDDSKNSIYLQMNSLKTEDTAVYYCHYVHYASASTVLPAFGVDAWGQGTTVTVSS VL: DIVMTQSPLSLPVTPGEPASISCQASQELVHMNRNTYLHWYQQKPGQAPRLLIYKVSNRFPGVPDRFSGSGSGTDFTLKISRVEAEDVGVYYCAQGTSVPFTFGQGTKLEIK" assay_metric="fold change of affinity" recorded_number=0.3
